Experiment: Aqueous solubility at pH 4.5
Assay type: physicochemical
Value kind: solubility (µg/mL)
Just the number in µg/mL, nothing appended.

Exercise: May I ask what solubility has been recorded for COc1ccc(-c2nc(N[C@H](CO)Cc3ccccc3)ccc2C(=O)NCCOc2ccccc2)c(OC)n1 ?
Solution: 36

====

Biological target: Extracellular calcium-sensing receptor (Homo sapiens, UniProt P41180)
Assay: Antagonist activity at calcium-sensing receptor expressed in HEK293 cells by FLIPR assay
Value kind: IC50 (µM)

Take a look at these entries with their results.
• COc1cccc(CCNc2ncc(C(=O)NCCOc3ccccc3)c(-c3cc(OC)c(OC)c(OC)c3)n2)c1 = 1
• COc1ccc(-c2nc(NCc3cccc(Cl)c3)ccc2C(=O)NCCOc2ccccc2)c(OC)n1 = 0.197

a = COc1cc(-c2nc(NCc3ccccc3C)ncc2C(=O)NCCOc2ccccc2)cc(OC)c1OC
b = COc1ccc(CCNc2ncc(C(=O)NCCOc3ccccc3)c(-c3cc(OC)c(OC)c(OC)c3)n2)cc1
Exercise: Hi, I'm comparing two records. Which one has the lower IC50, a or b ? Please indicate the selected item by its label.
Solution: b
(b: 2.8 µM, a: 10 µM)

====

Biological target: Extracellular calcium-sensing receptor (Homo sapiens)
Test: Antagonist activity at calcium-sensing receptor expressed in HEK293 cells by FLIPR assay
pIC50: −log10 of the molar value.
Value kind: pIC50

Exercise: May I ask what pIC50 has been recorded for COc1cc(-c2nc(NCCc3cccnc3)ncc2C(=O)NCCOc2ccccc2)cc(OC)c1OC ?
Solution: < 4.52

Exercise: Input COc1ccccc1-c1nc(N(C)Cc2ccccc2)ncc1C(=O)NCCOc1ccccc1
Solution: < 4.52

Exercise: Input COc1cc(-c2nc(NCc3ccccn3)ncc2C(=O)NCCOc2ccccc2)cc(OC)c1OC
Solution: < 4.52

====

Molecular target: Extracellular calcium-sensing receptor (Homo sapiens)
Sequence (P41180 whole entry): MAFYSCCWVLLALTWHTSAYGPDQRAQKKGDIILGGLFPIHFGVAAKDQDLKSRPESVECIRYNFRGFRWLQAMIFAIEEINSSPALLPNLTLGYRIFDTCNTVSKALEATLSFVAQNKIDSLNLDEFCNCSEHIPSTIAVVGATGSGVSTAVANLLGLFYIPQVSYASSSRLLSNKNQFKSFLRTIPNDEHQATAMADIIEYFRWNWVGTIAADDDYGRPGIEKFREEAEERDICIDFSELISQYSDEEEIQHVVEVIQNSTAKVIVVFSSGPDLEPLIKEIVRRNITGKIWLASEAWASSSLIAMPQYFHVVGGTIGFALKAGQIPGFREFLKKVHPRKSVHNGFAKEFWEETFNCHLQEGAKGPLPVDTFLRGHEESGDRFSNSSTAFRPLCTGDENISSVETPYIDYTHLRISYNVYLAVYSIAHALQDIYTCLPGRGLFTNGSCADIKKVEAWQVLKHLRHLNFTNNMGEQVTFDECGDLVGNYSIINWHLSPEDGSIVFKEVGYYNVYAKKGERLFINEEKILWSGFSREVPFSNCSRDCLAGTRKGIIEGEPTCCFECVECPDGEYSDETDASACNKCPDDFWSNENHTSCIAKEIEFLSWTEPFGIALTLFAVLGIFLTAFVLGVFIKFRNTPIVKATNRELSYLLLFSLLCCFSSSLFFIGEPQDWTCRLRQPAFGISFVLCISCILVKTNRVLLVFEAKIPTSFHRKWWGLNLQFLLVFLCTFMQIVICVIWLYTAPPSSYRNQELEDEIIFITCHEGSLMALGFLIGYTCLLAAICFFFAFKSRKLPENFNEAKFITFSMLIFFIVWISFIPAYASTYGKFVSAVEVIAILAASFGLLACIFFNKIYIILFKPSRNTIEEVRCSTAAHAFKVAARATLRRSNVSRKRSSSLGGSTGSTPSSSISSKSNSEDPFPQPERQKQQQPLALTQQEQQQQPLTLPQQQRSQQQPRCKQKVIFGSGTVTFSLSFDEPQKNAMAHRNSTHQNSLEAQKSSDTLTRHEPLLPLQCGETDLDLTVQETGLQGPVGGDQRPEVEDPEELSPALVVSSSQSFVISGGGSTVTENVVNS
Test: Antagonist activity at calcium-sensing receptor expressed in HEK293 cells by FLIPR assay
Assay type: functional, cell-based
Value kind: IC50 (µM)

Take a look at these entries with their results.
• COc1cc(-c2nc(NCc3cccc(Cl)c3)ccc2C(=O)NCCOc2ccccc2)cc(OC)c1OC = 0.162
• COc1cc(-c2nc(NCc3ccccc3)ncc2C(=O)NCCOc2ccccc2)cc(OC)c1OC = 0.73

A = CCN(Cc1ccccc1)c1ncc(C(=O)NCCCCc2ccccc2)c(-c2cc(OC)c(OC)c(OC)c2)n1
B = COc1cc(-c2nc(NCc3cccc(Cl)c3)ncc2C(=O)NCCOc2ccccc2)cc(OC)c1OC
Exercise: Hi, I'm comparing two records. Which one has the lower IC50, A or B ? Please indicate the selected item by its label.
Solution: B

1 = CCN(Cc1ccccc1)c1ncc(C(=O)NCCOc2ccccc2)c(-c2ccc(OC)nc2OC)n1
2 = COc1cc(-c2nc(NCc3ccccc3Cl)ncc2C(=O)NCCOc2ccccc2)cc(OC)c1OC
3 = COc1cc(-c2nc(NCCC(C)C)ncc2C(=O)NCCOc2ccccc2)cc(OC)c1OC
Exercise: Please list the entries, largest IC50 first. Answer format: the labels, in the requested order.
Solution: 2, 3, 1

a = COc1ccc(-c2nc(N(C)Cc3ccccc3)ncc2C(=O)NCCOc2ccccc2)cc1OC
b = COc1ccc(-c2nc(NCc3ccc4c(c3)OCO4)ccc2C(=O)NCCOc2ccccc2)c(OC)n1
c = COc1cc(-c2nc(NCCc3ccccc3)ncc2C(=O)NCCOc2ccccc2)cc(OC)c1OC
d = CCN(Cc1ccccc1)c1ccc(C(=O)NCCOc2ccccc2)c(-c2cc(OC)c(OC)c(OC)c2)n1
Exercise: Please list the entries, largest IC50 first. Answer format: the labels, in the requested order.
Solution: a, c, d, b

A = COc1cc(-c2nc(N[C@H](CO)Cc3ccccc3)ccc2C(=O)NCCOc2ccccc2)cc(OC)c1OC
B = CN(Cc1ccccc1)c1ncc(C(=O)NCCOc2ccccc2)c(-c2ccc(C(F)(F)F)cc2)n1
Exercise: Two entries are listed, A and B . Which one carries the higher IC50? Please indicate the selected item by its label.
Solution: B
(B: 18.9 µM, A: 0.076 µM)
